- experiment: chemical genetic growth profiling, strain panel (AID 1159580);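 note: tested at 20 µM; growth read once vehicle control cultures reached saturation at 30 °C; 1 = growth at the plate median or of vehicle wells; lower values mean less growth of the strain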
- particulars: S. cerevisiae deletion strains, growth OD, locus YHR079C, strain IRE1 (second series)
The campaign covered roughly 5,500 compounds. About 2,000 (36%) were called active. About 18% were inconclusive and are not listed. Cut-off read from the data, not from the text of the source: active = normalized growth mostly below about 0.91 (no sharp cut-off); inconclusive = no clear call, values can overlap the other calls; inactive = mostly above about 0.92. The list shows a part of the results.
Give your call using only these classes: 1 = active, -1 = inactive

// outcome(item) with item = CC1(C)C=CC(=O)[C@@]2(C)C1CC(=O)[C@]1(C)C2CC[C@@]2(C)[C@H](c3ccoc3)OC(=O)C3OC321 (stereo not given in full)
-1

Please let me know the test result on file for C[N+](C)(C)CC(O)CC(=O)O (stereo not given) .
-1

In this assay, the call recorded for "COc1ccc(Cl)cc1C(=O)NCCc1ccc(S(=O)(=O)NC(=O)NC2CCCCC2)cc1" was what?
-1

Query: recorded result category for C[C@@H]1CC[C@@]2(OC1)OC1CC3C4CC=C5C[C@@H](O)CC[C@]5(C)C4CC[C@]3(C)C1[C@@H]2C (stereo not given in full) in this test
-1

Given C[C@]12CCC3c4ccc(OS(=O)(=O)O)cc4CCC3C1CC[C@H]2O (stereo not given in full) , state the outcome it received in this test.
-1

What did this assay record as the result for "CC1(C)O[C@H]2CC(=O)OC[C@]23[C@H]2CC[C@@]4(C)[C@H](c5ccoc5)OC(=O)[C@H]5O[C@]54[C@]2(C)C(=O)C[C@@H]13" ?
-1

Call for entry "Cc1cc(OC(=O)c2c(C)cc(O)cc2O)cc(O)c1C(=O)O" :
-1

Fill in: this test's call for CC(=O)OC(C)C[N+](C)(C)C (stereo not given) is ___
-1

Hello, I am checking results. What call was entered for CCN(Cc1ccncc1)C(=O)C(CO)c1ccccc1 (stereo not given) ?
-1

For C[C@@H]1CC[C@@]2(NC1)O[C@H]1C[C@H]3C4CC=C5C[C@@H](O)CC[C@]5(C)C4CC[C@]3(C)C1[C@@H]2C (stereo not given in full) , which call appears in the assay record?
1

Test call for this compound, please: COc1ccc2c(c1)CCC1C2CCC2(C)C1C[C@@H](O)C2O (stereo not given in full)
-1

Which outcome was assigned to "CCCCCCCCCCCC1=C(O)C(=O)C=C(O)C1=O" in this test?
-1

Just curious, what result did NC(=O)NCC(N)C(=O)O (stereo not given) get here?
-1

Which result was noted for this compound in the test: "Cc1[nH]ccc2c1[nH]c1cc(=O)ccc12"
-1

Test call for this compound, please: CC(=O)[C@@]1(O)CCC2C3C[C@H](C)C4=CC(=O)C=CC4(C)[C@@]3(F)[C@@H](O)C[C@@]21C (stereo not given in full)
-1

Short answer needed: outcome of this test for "CCC(=O)c1c(O)cc(O)cc1O" ?
-1

What did the test return for "COc1cccc2c(C)cc(=O)[nH]c12" ?
-1

Kindly provide the recorded test outcome for the following compound: COC(=O)C[C@H]1C(C)(C)C2(Cl)O[C@@]34CC2C(=O)[C@]1(C)C3CC[C@]1(C)C4=CC(=O)O[C@H]1c1ccoc1 (stereo not given in full)
-1

Call for entry C[C@]12CCC3c4ccc(O)cc4CCC3C1C[C@@H](O)[C@@H]2O (stereo not given in full) :
-1

Hello, I am checking results. What call was entered for COC(=O)[C@@]1(C)CCC[C@]2(C)c3ccc(O)c(C(C)C)c3CCC12 (stereo not given in full) ?
-1
